Test: self-splicing fitness, log relative to wild type (ln ratio); higher = more splicing; Tetrahymena group I intron in knt gene, E. coli kanamycin selection, DiMSum; sequences stand for … in CUCUCU…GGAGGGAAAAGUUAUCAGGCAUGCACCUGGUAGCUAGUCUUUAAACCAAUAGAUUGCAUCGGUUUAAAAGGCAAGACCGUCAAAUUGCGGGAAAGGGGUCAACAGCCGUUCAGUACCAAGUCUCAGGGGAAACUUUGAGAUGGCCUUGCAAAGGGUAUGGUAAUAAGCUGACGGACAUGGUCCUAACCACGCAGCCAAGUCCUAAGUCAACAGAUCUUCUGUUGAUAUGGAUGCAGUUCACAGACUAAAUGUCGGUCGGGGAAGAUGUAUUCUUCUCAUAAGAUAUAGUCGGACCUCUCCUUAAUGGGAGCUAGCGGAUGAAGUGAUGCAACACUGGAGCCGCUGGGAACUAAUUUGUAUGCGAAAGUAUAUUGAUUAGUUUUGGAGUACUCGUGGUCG;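 further: selection with 25 µg/mL kanamycin versus none on LB agar overnight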
Details: 30 °C
Categorize each record by its self-splicing fitness (ln) using I (below -3), II (-3 to below -2), III (-2 or more)

Lab log: `GUUUAGCAAUAUUACGGAAG` — assign self-splicing fitness (ln) category II

Another: `UCACAGCAAUAUUACGGCCC` I

Another: `UAACAGCAAUAUUACGUAUG` III

Another: `CGCGAGCAAUAUUACGCACA` II

Another: `AGACAGCAAUAUUACGCCCA` III

Another: `UGAUAGCAAUAUUACGGGGA` I

Another: `GAUGAGCAAUAUUACGUGCA` III
